This listing pairs compounds with measured ΔTm at 20 µM.
- TARGET ENTITY: GSK3B (Homo sapiens, UniProt P49841)
- Construct: made in house
- Sequence (P49841 whole entry, species assumed): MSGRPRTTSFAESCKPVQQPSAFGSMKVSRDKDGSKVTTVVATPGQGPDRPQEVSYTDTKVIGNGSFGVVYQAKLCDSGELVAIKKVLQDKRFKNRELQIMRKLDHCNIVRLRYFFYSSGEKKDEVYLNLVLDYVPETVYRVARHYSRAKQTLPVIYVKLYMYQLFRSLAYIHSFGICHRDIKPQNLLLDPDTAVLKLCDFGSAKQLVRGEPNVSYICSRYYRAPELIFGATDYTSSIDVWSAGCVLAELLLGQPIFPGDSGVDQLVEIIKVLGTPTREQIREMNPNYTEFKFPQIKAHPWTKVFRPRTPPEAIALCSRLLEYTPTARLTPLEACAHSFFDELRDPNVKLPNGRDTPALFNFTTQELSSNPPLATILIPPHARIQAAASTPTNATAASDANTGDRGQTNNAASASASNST
- PROTOCOL DETAILS: Liability panel screening by DSF: GSK3B
- Assay type: binding
- CONDITION NOTES: DSF, 20 µM, n=2; read-out: Mean ΔTM GSK3B
Numeric answer only, unit °C assumed.

Here are 2 compounds together with their reported answers.
compound="CC(=O)O[C@]1(C(C)=O)CC[C@H]2[C@@H]3CCC4=CC(=O)CCC4=C3[C@@H](c3ccc(N(C)C)cc3)C[C@@]21C [Ulipristal acetate]" result_units=°C observed_result=-0.83
compound="O=C(/C=C/c1ccc(O)cc1)c1ccc(O)cc1O [Isoliquiritigenin]" result_units=°C observed_result=2.87

Input line: Form entry - test system: GSK3B (Homo sapiens, UniProt P49841); read-out: ΔTm at 20 µM; compound: Cc1c(-c2ccc(O)cc2)n(Cc2ccc(OCCN3CCCCCC3)cc2)c2ccc(O)cc12 [Bazedoxifene]
Output line: 0.0162

Input line: GSK3B (Homo sapiens, UniProt P49841) / ΔTm at 20 µM / CN(C)CCOc1ccc(/C(=C(/CCCO)c2ccccc2)c2ccc(O)cc2)cc1 [GSK5182] : value?
Output line: -1.96

Values were extracted from paper PMC11790914.
